// each record: one item and its GI50 for Human breast carcinoma MCF-7 cells

In [3]: df
Out[3]:
                                   molecule   result
0  Cc1ccc(C)c2c1[nH]c1c(NS(=O)(=O)c3ccc(Cl)s3)cccc12  > 10 µM
1  COc1ccc(S(=O)(=O)N(C)c2cccc3c2[nH]c2c(C)ccc(C)c23)cc1 [Compound 15c]  > 10 µM
2  Cc1ccc(C)c2c1[nH]c1c(NS(=O)(=O)c3cccc(C(F)(F)F)c3)cccc12  > 10 µM

I have this molecule here, COc1ccc(S(=O)(=O)Nc2cccc3c2[nH]c2ccccc23)cc1 [Compound 21a] , and I need its recorded GI50.
0.07 µM

# credit: patent US8173693B2
